Source: PubChem BioAssay (EPA / NIEHS)

# Read-out: BCL2L11 (gene 10018)
# Assay Name: LTEA_HepaRG_BCL2L11: Life Technologies and Expression Analysis (LTEA) Assay for Bcl-2 (BCL2L11) gene using HepaRG (AID 2283473)
# Run Conditions: mRNA level, 48 h; actives raise or lower the signal
Activity calls are given as the source filed them. The calls were made as follows: active = hit-call score of the fitted dose curve at least 0.9, where 1 is the maximum; inactive = score below 0.9.
Measured Quantity: AC50

Below, each entry is followed by its recorded AC50 result.
O=C(O)c1cccc(Oc2ccccc2)c1; inactive
C=CCCCCCCCCC(=O)O; inactive
Nc1cccc(N)c1; inactive
O=C(OC[C@H]1O[C@@H](OC(=O)c2cc(O)c(O)c(OC(=O)c3cc(O)c(O)c(O)c3)c2)[C@H](OC(=O)c2cc(O)c(O)c(OC(=O)c3cc(O)c(O)c(O)c3)c2)[C@@H](OC(=O)c2cc(O)c(O)c(OC(=O)c3cc(O)c(O)c(O)c3)c2)[C@@H]1OC(=O)c1cc(O)c(O)c(OC(=O)c2cc(O)c(O)c(O)c2)c1)c1cc(O)c(O)c(OC(=O)c2cc(O)c(O)c(O)c2)c1; 15.2 µM (active)
CN(C)c1ccc(Cc2ccc(N(C)C)cc2)cc1; inactive

// input: 6 molecules below; output: AC50 for each
1. Cn1cnc([N+](=O)[O-])c1Sc1ncnc2nc[nH]c12
2. CCOC(=O)COc1ccc2c(c1)CC(NCC(O)c1cccc(Cl)c1)CC2 (stereo unspecified)
3. CC(=O)c1ccc2c(c1)[C@H](NC(=O)c1ccc(F)cc1)[C@@H](O)C(C)(C)O2
4. Oc1ccc2c(c1)-c1ccccc1C2
5. O=C1CCC(N2C(=O)c3ccccc3C2=O)C(=O)N1 (stereo unspecified)
6. CC1(C)C(=O)N(Br)C(=O)N1Br

output:
1: 7.34 µM (active); 2: inactive; 3: inactive; 4: inactive; 5: inactive; 6: inactive
